EXPERIMENTAL_CONTEXT: in water, 308.15 K

# STRUCTURE_SMILES_STRING, solubility (mole fraction)
data = [
    ("COc1ccc(Cl)cc1C(=O)NCCc1ccc(S(=O)(=O)NC(=O)NC2CCCCC2)cc1", "2.18e-07"),
]

====

EXPERIMENTAL_CONTEXT: in n-propanol, 313.15 K

# STRUCTURE_SMILES_STRING, solubility (mole fraction)
data = [
    ("COc1ccc(Cl)cc1C(=O)NCCc1ccc(S(=O)(=O)NC(=O)NC2CCCCC2)cc1", 0.000572),
]

====

EXPERIMENTAL_CONTEXT: in isopropanol, 293.15 K

# STRUCTURE_SMILES_STRING, solubility (mole fraction)
measured = [
    ("COc1ccc(Cl)cc1C(=O)NCCc1ccc(S(=O)(=O)NC(=O)NC2CCCCC2)cc1", 0.000121),
]

====

EXPERIMENTAL_CONTEXT: in acetonitrile, 313.15 K
MEASURED_ENDPOINT: solubility (mole fraction)

# STRUCTURE_SMILES_STRING, MEASURED_ENDPOINT, VAL
records = [
    ("COc1ccc(Cl)cc1C(=O)NCCc1ccc(S(=O)(=O)NC(=O)NC2CCCCC2)cc1", "solubility (mole fraction)", 0.0003),
]

====

EXPERIMENTAL_CONTEXT: in water, 303.15 K

# STRUCTURE_SMILES_STRING, solubility (mole fraction)
measured = [
    ("COc1ccc(Cl)cc1C(=O)NCCc1ccc(S(=O)(=O)NC(=O)NC2CCCCC2)cc1", "1.57e-07"),
]

====

EXPERIMENTAL_CONTEXT: in methanol, 303.15 K
MEASURED_ENDPOINT: solubility (mole fraction)

# STRUCTURE_SMILES_STRING, VAL
records = [
    ("COc1ccc(Cl)cc1C(=O)NCCc1ccc(S(=O)(=O)NC(=O)NC2CCCCC2)cc1", 0.000365),
]

====

EXPERIMENTAL_CONTEXT: in n-propanol, 303.15 K
MEASURED_ENDPOINT: solubility (mole fraction)

# STRUCTURE_SMILES_STRING, VAL
data = [
    ("COc1ccc(Cl)cc1C(=O)NCCc1ccc(S(=O)(=O)NC(=O)NC2CCCCC2)cc1", 0.000302),
]

====

EXPERIMENTAL_CONTEXT: in n-propanol, 318.15 K

# STRUCTURE_SMILES_STRING, solubility (mole fraction)
data = [
    ("COc1ccc(Cl)cc1C(=O)NCCc1ccc(S(=O)(=O)NC(=O)NC2CCCCC2)cc1", 0.000751),
]

====

EXPERIMENTAL_CONTEXT: in methanol, 318.15 K
MEASURED_ENDPOINT: solubility (mole fraction)

# STRUCTURE_SMILES_STRING, VAL
data = [
    ("COc1ccc(Cl)cc1C(=O)NCCc1ccc(S(=O)(=O)NC(=O)NC2CCCCC2)cc1", 0.000941),
]

====

EXPERIMENTAL_CONTEXT: in methanol, 288.15 K

# STRUCTURE_SMILES_STRING, solubility (mole fraction)
records = [
    ("COc1ccc(Cl)cc1C(=O)NCCc1ccc(S(=O)(=O)NC(=O)NC2CCCCC2)cc1", 0.000181),
]

====

EXPERIMENTAL_CONTEXT: in n-propanol, 308.15 K

# STRUCTURE_SMILES_STRING, solubility (mole fraction)
measured = [
    ("COc1ccc(Cl)cc1C(=O)NCCc1ccc(S(=O)(=O)NC(=O)NC2CCCCC2)cc1", 0.000428),
]
